# procedure_details: in vivo
# Parameters: species or system male Sprague-Dawley rats
# conditions_used: male, Sprague-Dawley, rat, po, 25 mg/kg, Tmax (h)
result_type: Tmax (min)
Express your answer in min, writing the number without its unit.

query: Recorded Tmax for O=c1oc2cc(O)ccc2c2ccc(O)cc12 , please?
result: 15

---

# procedure_details: in vivo
# Set-up: species or system male Sprague-Dawley rats
# conditions_used: male, Sprague-Dawley, rat, po, 25 mg/kg
Listing of entries alongside the reported AUC.
Express your answer in ng·h/mL, writing the number without its unit.

query: Recorded AUC for O=c1oc2cc(O)ccc2c2ccc(O)cc12 [Sample #3, Urolithin A] , please?
result: 94.8

Next:
query: Recorded AUC for O=c1oc2cc(O)ccc2c2ccc(O)cc12 [Sample #2, Urolithin A] , please?
result: 96.2
